- System: TK-10 renal
- Method: NCI tumour cell line growth inhibition, 48 h
Reported TGI by item:

Cc1cc(-c2cscn2)c(O)c([N+](=O)[O-])c1	> 100 µM

Would you kindly share the measured TGI for Nc1nc(OCC2CCCCC2)c2[nH]cnc2n1 ?
30.5 µM

Please give the result for O=c1c2cc(S(=O)(=O)Nc3ccc(Cl)cc3Cl)ccc2ncn1NS(=O)(=O)c1cccc2ccccc12 too.
> 100 µM

Then this compound: O=C(/C=C/c1ccc(O)cc1)c1cc(Cl)ccc1O
> 100 µM

And what about the compound c1ccc([P+](c2ccccc2)(c2ccccc2)c2ccc(-c3ccc([P+](c4ccccc4)(c4ccccc4)c4ccccc4)cc3)cc2)cc1 ?
> 100 µM
